# System: SR leukemia
# experimental_protocol: NCI-60 one-dose screen, 48 h
# assay_setup: 10 µM unless noted
About 83,000 compounds went through this panel and 20% of them were active in at least one assay; those are over-represented in the sample as a whole. Calls of active or inactive are those of the source. Rule for the calls: active = growth percent below 10; inactive = the rest.
Pick one: 1 = active, 0 = inactive

- O=C(Cn1c(-c2ccccc2)nc2ccccc21)N=Nc1c(O)[nH]c2ccc(Br)cc12: 1
- O=C(Nc1ccc(-c2ccc3c(c2)NC(=O)/C3=C\c2ccc[nH]2)cc1)Nc1cccc(Cl)c1: 1
- COc1ccc(NC(=O)CSc2nnc(-c3ccc(-c4nc5ccccc5[nH]4)cc3)o2)cc1: 0
- CN(C)c1nc(NCCNS(=O)(=O)c2ccc(C3=Nc4c(N)nc(N)nc4NC(c4ccc(Cl)cc4)C3)cc2)nc(N2CCOCC2)n1 (centres undefined): 0
- O=C(NC(=S)N1CCN(c2ncnc3c2cnn3-c2ccccc2)CC1)c1ccc(Br)cc1: 0
- COc1nc(N)ncc1-c1ccc2ncnc(N3CCc4cc(F)c(Cl)cc43)c2c1: 1

In: Could you kindly confirm the outcome this assay logged for `COC(=O)c1cc(C(=O)C(F)(F)F)n2c3ccccc3c3ccccc3c12` ?
Out: 0

In: Could you kindly confirm the outcome this assay logged for `O=C(Cc1c(-c2ccccc2[N+](=O)[O-])n(-c2ncnc3c2c(-c2ccccc2)c(-c2ccccc2)n3Cc2ccccc2)[nH]c1=O)c1ccc(Cl)c(Cl)c1` ?
Out: 0

In: Could you kindly confirm the outcome this assay logged for `O=C(NNC(=S)NC(=O)c1ccccc1)c1ccc(OCc2nc3ccc(Cl)cc3[nH]2)cc1` ?
Out: 1
